# Tested on: 621-103 (TSC2-rescued);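 further: immortalized renal angiomyolipoma cells stably carrying empty vector or TSC2, dosed in 384-well plates in DMEM, viability normalized to vehicle-treated wells within each plate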
# method-summary: relative viability vs DMSO; higher = less cytotoxic
# condition: 1 µM; serum: 10% FBS; 72 h
Counter-ions that a name gives are not always drawn.
measured-metric: relative viability (%)
Note: unit % is implicit; provide only the numeric part.

Consider the reported relative viability for these compounds:
* O=C(O)Cc1cccc(OCCCN(Cc2cccc(C(F)(F)F)c2Cl)CC(c2ccccc2)c2ccccc2)c1 | 99.6
* Cc1ccc(C(=O)Nc2cccc(C(F)(F)F)c2)cc1Nc1nc(-c2cccnc2)nc2c1cnn2C | 78.2

Which relative viability reading was recorded for the compound "Nc1nccc(Oc2ccc(NC(=O)c3c[nH]cc(-c4ccc(F)cc4)c3=O)cc2F)c1Cl" ?
98.9

Which relative viability reading was recorded for the compound "O=C(O)CC[C@H]1CC[C@@](c2cc(F)ccc2F)(S(=O)(=O)c2ccc(Cl)cc2)CC1" ?
106

Which relative viability reading was recorded for the compound "COc1c(C)cnc(Cn2cnc3c(Cl)nc(N)nc32)c1C" ?
5.92

Which relative viability reading was recorded for the compound "Cc1ccc(C(=O)N(CCCN)[C@@H](c2oc3cc(Cl)ccc3c(=O)c2Cc2ccccc2)C(C)C)cc1" ?
47.3

Which relative viability reading was recorded for the compound "Cc1ccccc1-n1c(Cn2ncc3c(N)ncnc32)nc2cccc(C)c2c1=O" ?
98.9

Which relative viability reading was recorded for the compound "Cc1c(NC(=O)OC[C@@H]2COCCN2)cn2ncnc(Nc3ccc4c(cnn4Cc4cccc(F)c4)c3)c12" ?
101

Which relative viability reading was recorded for the compound "CC[C@H](Nc1ncnc2[nH]cnc12)c1nc2cccc(F)c2c(=O)n1-c1ccccc1" ?
109

Which relative viability reading was recorded for the compound "Cc1cc(Nc2cc(CN3CCOCC3)c3nc(C)c(Cc4ccc(Cl)cc4F)n3n2)n[nH]1" ?
87.2

Which relative viability reading was recorded for the compound CC(C)(Oc1ccc(C2CC2(Cl)Cl)cc1)C(=O)O (centres undefined) [Ciprofibrate] ?
103

Which relative viability reading was recorded for the compound "Cc1cc(Nc2cc(N3CCN(C)CC3)nc(/C=C/c3ccccc3)n2)n[nH]1" ?
73

Which relative viability reading was recorded for the compound "COc1cc2ncnc(Nc3ccc(F)c(Cl)c3)c2cc1OCCCN1CCOCC1" ?
99.2

Which relative viability reading was recorded for the compound N=C(N)NC(=N)NCCc1ccccc1 [Phenformin HCl] ?
101

Which relative viability reading was recorded for the compound "Cc1nc(=O)c2cc(CN(C)c3ccc(C(=O)N[C@@H](CCC(=O)O)C(=O)O)s3)ccc2[nH]1" ?
103

Which relative viability reading was recorded for the compound Cc1nnc(C(C)C)n1[C@H]1C[C@H]2CC[C@@H](C1)N2CC[C@H](NC(=O)C1CCC(F)(F)CC1)c1ccccc1 [Maraviroc (Selzentry)] ?
98.1

Which relative viability reading was recorded for the compound "CN1CC(=O)N2[C@H](c3ccc4c(c3)OCO4)c3[nH]c4ccccc4c3C[C@@H]2C1=O" ?
96.5

Which relative viability reading was recorded for the compound "CC1(C)C(=O)N(CCN2CCC(C(=O)c3ccc(F)cc3)CC2)c2ccccc21" ?
96.7

Which relative viability reading was recorded for the compound "NC(=O)c1ccc(-c2nc(-c3ccccn3)c(-c3ccc4c(c3)OCO4)[nH]2)cc1" ?
98.1

Which relative viability reading was recorded for the compound "CCCS(=O)(=O)Nc1ccc(F)c(C(=O)c2c[nH]c3ncc(Cl)cc23)c1F" ?
99.2

Which relative viability reading was recorded for the compound "Cc1cc(Nc2nc(N[C@@H](C)c3ccc(F)cc3)c(C#N)cc2F)n[nH]1" ?
62.8

Which relative viability reading was recorded for the compound "COc1ccc(-c2oc3c(CC=C(C)C)c(O[C@@H]4O[C@H](CO)[C@@H](O)[C@H](O)[C@H]4O)cc(O)c3c(=O)c2O[C@@H]2O[C@@H](C)[C@H](O)[C@@H](O)[C@H]2O)cc1" ?
98.3

Which relative viability reading was recorded for the compound "COc1cc2/c(=N/c3ccc(Br)cc3F)nc[nH]c2cc1OCC1CCN(C)CC1" ?
98.3
